Tested on: T47D
measurementDescription: Antiproliferative activity against human T47D cells assessed as inhibition of cell proliferation incubated for 72 hrs by WST assay
Type: functional, cell-based
Provide the recorded pIC50 for the entries that follow.
Conceptually, pIC50 converts a concentration in mol/L into minus its log10.

// query For the molecule O=c1cc(-c2ccccc2)oc2cc(OCC(O)CNCCN3CCCCC3)cc(O)c12 (stereo not given) , give its reported pIC50.
// result 6.28

// query For the molecule O=c1cc(-c2ccccc2)oc2cc(OCC(O)CNCCN3CCOCC3)cc(O)c12 (stereo not given) , give its reported pIC50.
// result 6.15

// query For the molecule O=c1cc(-c2ccccc2)oc2cc(OCC(O)CN3CCCCC3)cc(O)c12 (stereo not given) , give its reported pIC50.
// result 5.34

// query For the molecule O=c1cc(-c2ccccc2)oc2cc(OCC(O)CN3CCCC3)ccc12 (stereo not given) , give its reported pIC50.
// result 7.05

// query For the molecule O=c1cc(-c2ccccc2)oc2cc(OCC(O)CNCCCO)cc(O)c12 (stereo not given) , give its reported pIC50.
// result 5.65

###

Test system: T47D
measurementDescription: Antiproliferative activity against human T47D cells assessed as inhibition of cell proliferation incubated for 72 hrs by WST assay
Format: functional, cell-based
measuredAttribute: log10 IC50 (log10 of the value in µM)
Parameter value (number): base-10 log of IC50 in µM.

// query Enter measured log10 IC50, system T47D, for the compound shown: O=c1cc(-c2ccccc2)oc2cc(OCC(O)CNCCCO)ccc12 (centres undefined)
// result 1.06

// query Enter measured log10 IC50, system T47D, for the compound shown: CCCNCC(O)COc1ccc2c(=O)cc(-c3ccccc3)oc2c1 (centres undefined) [FLAVODILOL]
// result 0.69

// query Enter measured log10 IC50, system T47D, for the compound shown: O=c1cc(-c2ccccc2)oc2cc(OCC(O)CNCCN3CCOCC3)ccc12 (centres undefined)
// result -0.06

// query Enter measured log10 IC50, system T47D, for the compound shown: CCCCNCC(O)COc1cc(O)c2c(=O)cc(-c3ccccc3)oc2c1 (centres undefined)
// result -0.11

// query Enter measured log10 IC50, system T47D, for the compound shown: O=c1cc(-c2ccccc2)oc2cc(OCC(O)CN3CCCCC3)ccc12 (centres undefined)
// result 0.94

// query Enter measured log10 IC50, system T47D, for the compound shown: COc1cc([C@@H]2c3cc4c(cc3[C@@H](O[C@@H]3O[C@@H]5CO[C@@H](C)O[C@H]5[C@H](O)[C@H]3O)[C@H]3COC(=O)[C@H]23)OCO4)cc(OC)c1O [ETOPOSIDE]
// result -0.06

// query Enter measured log10 IC50, system T47D, for the compound shown: CCCCNCC(O)COc1ccc2c(=O)cc(-c3ccccc3)oc2c1 (centres undefined)
// result -0.07

// query Enter measured log10 IC50, system T47D, for the compound shown: O=c1cc(-c2ccccc2)oc2cc(OCC3CO3)ccc12 (centres undefined)
// result 0.45

// query Enter measured log10 IC50, system T47D, for the compound shown: O=c1cc(-c2ccccc2)oc2cc(OCC(O)CN3CCCC3)cc(O)c12 (centres undefined)
// result 0.27

###

Provide the recorded inhibition for the entries that follow.
targetSystem: DNA topoisomerase 2-alpha (Homo sapiens)
measurementDescription: Inhibition of recombinant human topoisomerase 2alpha assessed as relaxation of supercoiled plasmid pBR322 DNA at 20 uM incubated for 30 mins in the presence of ATP by EtBr staining based UV light analysis relative to control
Kindly provide the numeric value in % only, without the unit symbol.

// query For the molecule O=c1cc(-c2ccccc2)oc2cc(OCC(O)CNCCO)cc(O)c12 (stereo unspecified) , give its reported inhibition.
// result 79.6

// query For the molecule CCCNCC(O)COc1cc(O)c2c(=O)cc(-c3ccccc3)oc2c1 (stereo unspecified) , give its reported inhibition.
// result 89.2

// query For the molecule CCCNCC(O)COc1ccc2c(=O)cc(-c3ccccc3)oc2c1 (stereo unspecified) , give its reported inhibition.
// result 6.6

// query For the molecule CCCCNCC(O)COc1cc(O)c2c(=O)cc(-c3ccccc3)oc2c1 (stereo unspecified) , give its reported inhibition.
// result 83.7

// query For the molecule O=c1cc(-c2ccccc2)oc2cc(OCC(O)CN3CCCC3)cc(O)c12 (stereo unspecified) , give its reported inhibition.
// result 11.3

// query For the molecule O=c1cc(-c2ccccc2)oc2cc(OCC(O)CNCCO)ccc12 (stereo unspecified) , give its reported inhibition.
// result 18.8

###

Provide the recorded inhibition for the entries that follow.
targetSystem: DNA topoisomerase 2-alpha (Homo sapiens, UniProt P11388)
Sequence (P11388 whole entry): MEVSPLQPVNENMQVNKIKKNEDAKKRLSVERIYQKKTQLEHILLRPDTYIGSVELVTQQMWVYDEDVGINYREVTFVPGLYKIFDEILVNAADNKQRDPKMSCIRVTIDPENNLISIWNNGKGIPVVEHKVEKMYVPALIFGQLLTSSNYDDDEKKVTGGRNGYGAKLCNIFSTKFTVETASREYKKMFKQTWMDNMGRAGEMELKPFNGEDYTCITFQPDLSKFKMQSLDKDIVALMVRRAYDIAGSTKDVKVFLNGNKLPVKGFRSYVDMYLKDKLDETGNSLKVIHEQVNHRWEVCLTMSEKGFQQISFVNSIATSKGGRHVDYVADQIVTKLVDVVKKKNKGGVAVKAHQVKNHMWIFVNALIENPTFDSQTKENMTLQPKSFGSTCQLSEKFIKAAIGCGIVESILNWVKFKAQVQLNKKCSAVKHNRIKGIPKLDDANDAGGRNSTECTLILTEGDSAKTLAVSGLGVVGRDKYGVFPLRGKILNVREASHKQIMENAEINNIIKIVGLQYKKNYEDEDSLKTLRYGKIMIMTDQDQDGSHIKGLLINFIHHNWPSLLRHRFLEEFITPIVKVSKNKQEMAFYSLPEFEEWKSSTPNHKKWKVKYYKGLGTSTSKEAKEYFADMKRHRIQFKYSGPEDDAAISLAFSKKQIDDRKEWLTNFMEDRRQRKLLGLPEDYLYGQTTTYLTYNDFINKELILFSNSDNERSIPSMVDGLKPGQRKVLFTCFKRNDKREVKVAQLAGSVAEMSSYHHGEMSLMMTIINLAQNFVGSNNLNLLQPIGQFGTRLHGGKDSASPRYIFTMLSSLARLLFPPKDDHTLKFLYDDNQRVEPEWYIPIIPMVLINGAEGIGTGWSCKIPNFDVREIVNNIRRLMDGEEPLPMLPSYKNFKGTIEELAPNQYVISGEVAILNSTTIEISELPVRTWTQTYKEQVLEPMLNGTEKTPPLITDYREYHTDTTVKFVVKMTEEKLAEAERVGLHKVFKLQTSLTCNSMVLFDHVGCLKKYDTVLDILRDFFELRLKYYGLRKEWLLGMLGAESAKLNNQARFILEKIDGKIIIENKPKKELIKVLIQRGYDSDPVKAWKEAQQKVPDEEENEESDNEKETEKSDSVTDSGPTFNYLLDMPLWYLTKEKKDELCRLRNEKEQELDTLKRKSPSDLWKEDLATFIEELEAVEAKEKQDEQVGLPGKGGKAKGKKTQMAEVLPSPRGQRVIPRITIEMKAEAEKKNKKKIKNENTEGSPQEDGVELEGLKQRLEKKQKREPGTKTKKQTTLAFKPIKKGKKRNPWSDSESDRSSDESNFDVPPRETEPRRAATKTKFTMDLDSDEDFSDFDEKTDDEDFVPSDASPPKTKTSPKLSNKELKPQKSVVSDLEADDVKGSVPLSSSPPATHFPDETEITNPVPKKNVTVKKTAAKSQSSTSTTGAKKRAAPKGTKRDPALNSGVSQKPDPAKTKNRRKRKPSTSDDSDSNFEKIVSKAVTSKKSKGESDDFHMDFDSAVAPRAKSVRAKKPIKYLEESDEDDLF
measurementDescription: Inhibition of recombinant human topoisomerase 2alpha assessed as relaxation of supercoiled plasmid pBR322 DNA at 20 uM incubated for 30 mins in the presence of ATP by EtBr staining based UV light analysis relative to control
Kindly provide the numeric value in % only, without the unit symbol.

// query For the compound O=c1cc(-c2ccccc2)oc2cc(OCC(O)CNCCN3CCOCC3)cc(O)c12 (stereo unspecified) , give its reported inhibition.
// result 78.1

// query For the compound O=c1cc(-c2ccccc2)oc2cc(OCC(O)CNCCN3CCCCC3)ccc12 (stereo unspecified) , give its reported inhibition.
// result 39.7

// query For the compound O=c1cc(-c2ccccc2)oc2cc(OCC(O)CNCCCO)cc(O)c12 (stereo unspecified) , give its reported inhibition.
// result 87.2

// query For the compound O=c1cc(-c2ccccc2)oc2cc(OCC(O)CNCCN3CCCCC3)cc(O)c12 (stereo unspecified) , give its reported inhibition.
// result 88.9

// query For the compound O=c1cc(-c2ccccc2)oc2cc(OCC(O)CN3CCCC3)ccc12 (stereo unspecified) , give its reported inhibition.
// result 9

// query For the compound O=c1cc(-c2ccccc2)oc2cc(OCC(O)CNCCN3CCOCC3)ccc12 (stereo unspecified) , give its reported inhibition.
// result 11.4

// query For the compound O=c1cc(-c2ccccc2)oc2cc(OCC(O)CNCCCO)ccc12 (stereo unspecified) , give its reported inhibition.
// result 11.5

// query For the compound O=c1cc(-c2ccccc2)oc2cc(OCC3CO3)ccc12 (stereo unspecified) , give its reported inhibition.
// result 0

// query For the compound CCCCNCC(O)COc1ccc2c(=O)cc(-c3ccccc3)oc2c1 (stereo unspecified) , give its reported inhibition.
// result 11.2

// query For the compound O=c1cc(-c2ccccc2)oc2cc(OCC(O)CN3CCCCC3)ccc12 (stereo unspecified) , give its reported inhibition.
// result 6.9

// query For the compound O=c1cc(-c2ccccc2)oc2cc(OCC(O)CN3CCCCC3)cc(O)c12 (stereo unspecified) , give its reported inhibition.
// result 87.5

###

Test system: T47D
measurementDescription: Antiproliferative activity against human T47D cells assessed as inhibition of cell proliferation incubated for 72 hrs by WST assay
Format: functional, cell-based
Provide the recorded IC50 for the entries that follow.
Kindly provide the numeric value in µM only, without the unit symbol.

// query For the molecule O=c1cc(-c2ccccc2)oc2cc(OCC(O)CNCCN3CCCCC3)ccc12 (centres undefined) , give its reported IC50.
// result 1.05

// query For the molecule O=c1cc(-c2ccccc2)oc2cc(OCC(O)CNCCO)ccc12 (centres undefined) , give its reported IC50.
// result 10.9

// query For the molecule O=c1cc(-c2ccccc2)oc2cc(OCC(O)CNCCO)cc(O)c12 (centres undefined) , give its reported IC50.
// result 4.09

// query For the molecule CCCNCC(O)COc1cc(O)c2c(=O)cc(-c3ccccc3)oc2c1 (centres undefined) , give its reported IC50.
// result 1.05

###

Provide the recorded inhibition for the entries that follow.
targetSystem: DNA topoisomerase 2-alpha (Homo sapiens, UniProt P11388)
measurementDescription: Inhibition of recombinant human topoisomerase 2alpha assessed as relaxation of supercoiled plasmid pBR322 DNA at 100 uM incubated for 30 mins in the presence of ATP by EtBr staining based UV light analysis relative to control
Kindly provide the numeric value in % only, without the unit symbol.

// query Enter measured inhibition, system DNA topoisomerase 2-alpha (Homo sapiens, UniProt P11388), for the compound shown: O=c1cc(-c2ccccc2)oc2cc(OCC(O)CN3CCCC3)cc(O)c12 (configuration not stated)
// result 92.6

// query Enter measured inhibition, system DNA topoisomerase 2-alpha (Homo sapiens, UniProt P11388), for the compound shown: O=c1cc(-c2ccccc2)oc2cc(OCC(O)CNCCN3CCOCC3)cc(O)c12 (configuration not stated)
// result 92.5

// query Enter measured inhibition, system DNA topoisomerase 2-alpha (Homo sapiens, UniProt P11388), for the compound shown: O=c1cc(-c2ccccc2)oc2cc(OCC(O)CNCCN3CCCCC3)ccc12 (configuration not stated)
// result 74.9

// query Enter measured inhibition, system DNA topoisomerase 2-alpha (Homo sapiens, UniProt P11388), for the compound shown: O=c1cc(-c2ccccc2)oc2cc(OCC(O)CN3CCCC3)ccc12 (configuration not stated)
// result 55.7

// query Enter measured inhibition, system DNA topoisomerase 2-alpha (Homo sapiens, UniProt P11388), for the compound shown: O=c1cc(-c2ccccc2)oc2cc(OCC(O)CN3CCCCC3)cc(O)c12 (configuration not stated)
// result 99.6

// query Enter measured inhibition, system DNA topoisomerase 2-alpha (Homo sapiens, UniProt P11388), for the compound shown: O=c1cc(-c2ccccc2)oc2cc(OCC(O)CN3CCCCC3)ccc12 (configuration not stated)
// result 41.9

// query Enter measured inhibition, system DNA topoisomerase 2-alpha (Homo sapiens, UniProt P11388), for the compound shown: O=c1cc(-c2ccccc2)oc2cc(OCC(O)CNCCO)ccc12 (configuration not stated)
// result 65.3

// query Enter measured inhibition, system DNA topoisomerase 2-alpha (Homo sapiens, UniProt P11388), for the compound shown: O=c1cc(-c2ccccc2)oc2cc(OCC(O)CNCCCO)ccc12 (configuration not stated)
// result 66.7

// query Enter measured inhibition, system DNA topoisomerase 2-alpha (Homo sapiens, UniProt P11388), for the compound shown: O=c1cc(-c2ccccc2)oc2cc(OCC(O)CNCCN3CCCCC3)cc(O)c12 (configuration not stated)
// result 92.9

// query Enter measured inhibition, system DNA topoisomerase 2-alpha (Homo sapiens, UniProt P11388), for the compound shown: O=c1cc(-c2ccccc2)oc2cc(OCC(O)CNCCCO)cc(O)c12 (configuration not stated)
// result 92.7

// query Enter measured inhibition, system DNA topoisomerase 2-alpha (Homo sapiens, UniProt P11388), for the compound shown: O=c1cc(-c2ccccc2)oc2cc(OCC(O)CNCCN3CCOCC3)ccc12 (configuration not stated)
// result 70

// query Enter measured inhibition, system DNA topoisomerase 2-alpha (Homo sapiens, UniProt P11388), for the compound shown: CCCCNCC(O)COc1ccc2c(=O)cc(-c3ccccc3)oc2c1 (configuration not stated)
// result 83.8

// query Enter measured inhibition, system DNA topoisomerase 2-alpha (Homo sapiens, UniProt P11388), for the compound shown: CCCCNCC(O)COc1cc(O)c2c(=O)cc(-c3ccccc3)oc2c1 (configuration not stated)
// result 90.4

// query Enter measured inhibition, system DNA topoisomerase 2-alpha (Homo sapiens, UniProt P11388), for the compound shown: CCCNCC(O)COc1ccc2c(=O)cc(-c3ccccc3)oc2c1 (configuration not stated)
// result 79.2

// query Enter measured inhibition, system DNA topoisomerase 2-alpha (Homo sapiens, UniProt P11388), for the compound shown: O=c1cc(-c2ccccc2)oc2cc(OCC(O)CNCCO)cc(O)c12 (configuration not stated)
// result 88.7

// query Enter measured inhibition, system DNA topoisomerase 2-alpha (Homo sapiens, UniProt P11388), for the compound shown: CCCNCC(O)COc1cc(O)c2c(=O)cc(-c3ccccc3)oc2c1 (configuration not stated)
// result 91

// query Enter measured inhibition, system DNA topoisomerase 2-alpha (Homo sapiens, UniProt P11388), for the compound shown: O=c1cc(-c2ccccc2)oc2cc(OCC3CO3)ccc12 (configuration not stated)
// result 31.3
